Species: Homo sapiens
Assay: In vitro inhibition of LTB4 production in human PMN
Format: functional
value_kind: IC50 (nM)
Numbers only, in nM.

The value of IC50 measured for the compound `CC(=O)O[C@H]1C[C@@H]2[C@@]3(C)CCCC(C)(C)[C@@H]3CC[C@@]2(C)[C@@H]2CC=C(C=O)[C@H](C=O)[C@@]12C` turned out to be 1000
